- Tgt: T1, human TROP2 protein (Sino Biological, #10428-H08H) (human, UniProt P09758 27-274)
- T1 construct: bought protein; also called human Trop2 protein antigen (His tag); not shown: His tag
- T1 sequence (looked up): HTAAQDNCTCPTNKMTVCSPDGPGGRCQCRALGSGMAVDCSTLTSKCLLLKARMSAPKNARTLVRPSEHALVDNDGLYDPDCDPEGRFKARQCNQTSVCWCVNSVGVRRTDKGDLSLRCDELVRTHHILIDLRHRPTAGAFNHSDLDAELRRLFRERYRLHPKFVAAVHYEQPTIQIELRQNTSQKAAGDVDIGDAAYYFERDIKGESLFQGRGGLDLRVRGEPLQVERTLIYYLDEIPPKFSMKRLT
- Method Summary: BLI, Octet RED96, AHC sensor

Binder	Response
PR001130 (antibody, human IgG1, kappa, V domains shown, fully human IgG1/kappa; also called antibody No. (2)) VH: QVQLQESGPGLVKPSGTLSLTCAVSGDSISSHNWWSWVRQPPGKGLEWIGEIYHSGITSYNPSLKSRVTISVDKSKNQFSLKLNSVTAADTAMYYCARGSGVISYFDYWGQGTLVTVSS VL: DIQMTQSPSTLSASVGDRVTITCRASQSIGNWLAWYQQKPGKAPKLLIYKASSLESGVPSRFSGSGSGTEFTLTISSLQPDDFATYYCQQYDSYSPITFGQGTRLEIKR	0.357

These data points were gathered from patent US20240067748A1.
